tested on: Escherichia coli TOP10; test: shrunken log2 fold change of peptide-encoding DNA abundance (4.5 h post-induction vs induction); higher = less antimicrobial activity (less host growth inhibition); conditions: time post-induction: 4.5 h; library: site-saturation at positions 5, 18, 19, 20;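 note: peptides expressed intracellularly from a pBAD plasmid library in pooled LB shake-flask culture, induced with 0.3% L-arabinose, DNA abundance read by NGS, three biological replicates, DESeq2 with apeglm shrinkage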
readoutType: shrunken log2 fold change
// no unit string in output, number only

In [3]: df
Out[3]:
             entrysequence                     tgt  measuredvalue
0  RRIRFRPPRLPRPRPRPNMMPRP  Escherichia coli TOP10         -0.444
1  RRIRIRPPRLPRPRPRPSYMPRP  Escherichia coli TOP10          -1.53
2  RRIRDRPPRLPRPRPRPRTEPRP  Escherichia coli TOP10         0.0904
3  RRIRARPPRLPRPRPRPHLPPRP  Escherichia coli TOP10         0.0943
4  RRIRCRPPRLPRPRPRPWFFPRP  Escherichia coli TOP10          -0.24
5  RRIRERPPRLPRPRPRPTSRPRP  Escherichia coli TOP10          0.249

Qu. Can you share its shrunken log2 fold change? I mean this sequence: RRIRRRPPRLPRPRPRPYKWPRP
Ans. -0.138

Qu. Can you share its shrunken log2 fold change? I mean this sequence: RRIRTRPPRLPRPRPRPGMNPRP
Ans. -0.15

Qu. Can you share its shrunken log2 fold change? I mean this sequence: RRIRFRPPRLPRPRPRPARLPRP
Ans. 0.175

Qu. Can you share its shrunken log2 fold change? I mean this sequence: RRIRVRPPRLPRPRPRPVCLPRP
Ans. 0.619

Qu. Can you share its shrunken log2 fold change? I mean this sequence: RRIRDRPPRLPRPRPRPCQEPRP
Ans. 0.211

Qu. Can you share its shrunken log2 fold change? I mean this sequence: RRIRYRPPRLPRPRPRPNVEPRP
Ans. -0.155

Qu. Can you share its shrunken log2 fold change? I mean this sequence: RRIRARPPRLPRPRPRPPVHPRP
Ans. 0.516

Qu. Can you share its shrunken log2 fold change? I mean this sequence: RRIRGRPPRLPRPRPRPGLIPRP
Ans. -0.0196

Qu. Can you share its shrunken log2 fold change? I mean this sequence: RRIRKRPPRLPRPRPRPHLPPRP
Ans. 0.0692

Qu. Can you share its shrunken log2 fold change? I mean this sequence: RRIRYRPPRLPRPRPRPTVCPRP
Ans. -0.0618

Qu. Can you share its shrunken log2 fold change? I mean this sequence: RRIRMRPPRLPRPRPRPHQVPRP
Ans. 0.423

Qu. Can you share its shrunken log2 fold change? I mean this sequence: RRIRWRPPRLPRPRPRPHISPRP
Ans. 0.00485

Qu. Can you share its shrunken log2 fold change? I mean this sequence: RRIRERPPRLPRPRPRPKAWPRP
Ans. 0.0873

Qu. Can you share its shrunken log2 fold change? I mean this sequence: RRIRIRPPRLPRPRPRPSTMPRP
Ans. -1.18

Qu. Can you share its shrunken log2 fold change? I mean this sequence: RRIRDRPPRLPRPRPRPFCNPRP
Ans. -0.0411

Qu. Can you share its shrunken log2 fold change? I mean this sequence: RRIRGRPPRLPRPRPRPCVIPRP
Ans. 0.033

Qu. Can you share its shrunken log2 fold change? I mean this sequence: RRIRPRPPRLPRPRPRPAVGPRP
Ans. 0.414
